Tested on: OVCAR-3 ovarian
Assay Comment: NCI tumour cell line growth inhibition, 48 h
Recorded TGI values for a group of molecules are listed next.
Observable: TGI (µM)

{"Molecule": "Cn1cnc([N+](=O)[O-])c1Sc1nc2cccnc2s1", "Observable": "TGI", "Relation Sign": "=", "Measured Result": 28.1}
{"Molecule": "CC(C)[Si](OCC1CC(C[C@H]2CC(C[C@H]3C[C@@H](CO[Si](C(C)C)(C(C)C)C(C)C)OC(C)(C)O3)OC(C)(C)O2)OC(C)(C)O1)(C(C)C)C(C)C (stereo not given in full)", "Observable": "TGI", "Relation Sign": ">", "Measured Result": 100}
{"Molecule": "O=C1c2ccccc2C(=O)c2c1oc(=O)c1ccccc21", "Observable": "TGI", "Relation Sign": "=", "Measured Result": 3.61}
{"Molecule": "COC1=CC(=O)c2c(O)ccc(O)c2C1=O", "Observable": "TGI", "Relation Sign": "=", "Measured Result": 5.03}
{"Molecule": "CCCC(=O)/C=C/S/C=C/C(=O)CCC", "Observable": "TGI", "Relation Sign": "=", "Measured Result": 18.7}
{"Molecule": "O=C(N/N=C/C=C/c1ccc([N+](=O)[O-])o1)c1ccc(Br)s1", "Observable": "TGI", "Relation Sign": "=", "Measured Result": 41.7}
{"Molecule": "COc1cc(OC)c2cc(C(=O)O)c(=O)oc2c1", "Observable": "TGI", "Relation Sign": ">", "Measured Result": 100}
{"Molecule": "CC(C)C(Sc1nc(-c2ccccc2)c(-c2ccccc2)[nH]1)C(=O)N/N=C/c1ccc([N+](=O)[O-])cc1 (stereo not given)", "Observable": "TGI", "Relation Sign": "=", "Measured Result": 21.3}
{"Molecule": "CC(C)=CC(O)C/C(C)=C/CC/C(C)=C/CCC1(C)C(CCCO)/C(=C(/C)C=O)CCC1(C)O (stereo not given)", "Observable": "TGI", "Relation Sign": ">", "Measured Result": 100}
{"Molecule": "CN(C)CS/C(N)=N\\C(O)C(Cl)(Cl)Cl (stereo not given)", "Observable": "TGI", "Relation Sign": ">", "Measured Result": 100}
{"Molecule": "Oc1ccc2c3c1OC1C(=NN=C4CCC5(O)C6Cc7ccc(O)c8c7C5(CCN6CC5CC5)C4O8)CCC4(O)C(C2)N(CC2CC2)CCC314 (stereo not given)", "Observable": "TGI", "Relation Sign": "=", "Measured Result": 34.6}
{"Molecule": "COc1ccc(N(C)c2nc(Cl)nc3ccn(C)c23)cc1", "Observable": "TGI", "Relation Sign": ">", "Measured Result": 100}
{"Molecule": "c1cc2cc(c1)CN1CCNCCN(CCNCC1)Cc1cccc(c1)CN1CCNCCN(CCNCC1)C2", "Observable": "TGI", "Relation Sign": ">", "Measured Result": 100}
{"Molecule": "COc1ccc(N2CCN(Cc3c(C(C)=O)[n+](=O)c4ccccc4n3[O-])CC2)cc1", "Observable": "TGI", "Relation Sign": ">", "Measured Result": 100}
{"Molecule": "CCn1c(-c2ccccc2)nc2c1C(=O)c1ccccc1C2=O", "Observable": "TGI", "Relation Sign": "=", "Measured Result": 49.5}
{"Molecule": "Cc1ccc(S(=O)C[C@@]2(C(F)F)NC(=O)NC2=O)cc1 (stereo not given in full)", "Observable": "TGI", "Relation Sign": ">", "Measured Result": 100}
{"Molecule": "c1ccc2c(c1)CCN1CCc3c([nH]c4ccccc34)C21 (stereo not given)", "Observable": "TGI", "Relation Sign": "=", "Measured Result": 66.7}
{"Molecule": "COC(=O)C1=COC2OC3/C(=C\\c4ccc(O)c(OC)c4)C(=O)OC34C=CC1C24 (stereo not given)", "Observable": "TGI", "Relation Sign": "=", "Measured Result": 28.2}
{"Molecule": "COc1cc2c3c(n(CCCNC(=O)OCC4c5ccccc5-c5ccccc54)c(=O)c2cc1OC)-c1cc2c(cc1C3=O)OCO2", "Observable": "TGI", "Relation Sign": ">", "Measured Result": 100}
{"Molecule": "O=c1c2ccccc2c2c1c1c3ccccc3c(=O)c1c1c3ccccc3c(=O)c21", "Observable": "TGI", "Relation Sign": ">", "Measured Result": 100}

====

Test system: HOP-92 NSCLC
Assay Comment: NCI tumour cell line growth inhibition, 48 h

{"Compound": "O=C1/C(=C/c2ccc(Cl)cc2)CN(Cc2cn(CCNc3ccnc4cc(Cl)ccc34)nn2)C/C1=C\\c1ccc(Cl)cc1", "Relation Sign": "=", "TGI / µM": 1.83}
{"Compound": "COc1cc(C(=O)/C=C/c2c(-c3ccc(F)cc3)nc3ncccn23)cc(OC)c1OC", "Relation Sign": "=", "TGI / µM": 92.9}
{"Compound": "O=C1Nc2ccccc2/C1=C/c1cn(C(=O)c2c(Cl)cccc2Cl)c2ccccc12", "Relation Sign": "=", "TGI / µM": 6.33}
{"Compound": "C/C1=C\\CC[C@@]2(C)O[C@@H]2C[C@@H]2[C@H](C/C(C)=C/CC1)OC(=O)C21CCN=N1 (stereo partly drawn)", "Relation Sign": ">", "TGI / µM": 75}
{"Compound": "COC(=O)C1=COC2OC3/C(=C\\c4ccc(O)c(OC)c4)C(=O)OC34C=CC1C24 (stereo not drawn)", "Relation Sign": "=", "TGI / µM": 44.6}
{"Compound": "CC1CC(=O)C(CC(=O)O)C1C(C(=O)C(=O)Nc1c(C#N)cccc1[N+](=O)[O-])[N+](=O)[O-] (stereo not drawn)", "Relation Sign": ">", "TGI / µM": 100}
{"Compound": "CCCCCCCCCCCCCCCCOC(=O)c1c(C)[nH]c(/C=C2\\N=C(c3ccc[nH]3)C=C2OC)c1C", "Relation Sign": "=", "TGI / µM": 0.83}
{"Compound": "CC(=O)O[C@H]1CC[C@H]2[C@@H]3CCC4=C(C(=O)C=CC4(C)OC(C)=O)[C@H]3CC[C@]12C (stereo partly drawn)", "Relation Sign": ">", "TGI / µM": 100}

====

Recorded TGI values for a group of molecules are listed next.
Tested on: HS 578T breast
Assay Comment: NCI tumour cell line growth inhibition, 48 h

{"Molecule": "Cc1cc(C)nc(NS(=O)(=O)c2ccc(NNC(=O)c3cccc4c(NNc5ccc(S(=O)(=O)Nc6nc(C)cc(C)n6)cc5)c5ccccc5nc34)cc2)n1", "TGI": "71.9 µM"}
{"Molecule": "COc1cc(/C=C/C(=O)C(C(=O)/C=C/c2ccc(OC(=O)CCNc3nnc(C)s3)c(OC)c2)C(=O)CCNc2nnc(C)s2)ccc1OC(=O)CCNc1nnc(C)s1", "TGI": "9.7 µM"}
{"Molecule": "c1ccc2c(Nc3ccc(Oc4ccc(Nc5c6ccccc6nc6ccccc56)cc4)cc3)c3ccccc3nc2c1", "TGI": "5.04 µM"}
{"Molecule": "O=C1Nc2ccccc2/C1=C/c1ccccc1", "TGI": "91.8 µM"}
{"Molecule": "C=C(CN(C)C)C(=O)c1cc(C)ccc1C", "TGI": "> 91.3 µM"}
{"Molecule": "COc1ccc(/C(=N\\O)c2cc(OC)c(OC)c(OC)c2)c(OC)c1N", "TGI": "> 100 µM"}
{"Molecule": "NC1=NN(c2ccccc2)C2(c3ccncc3C(=O)O)C1C(N)=NN2c1ccccc1 (centres undefined)", "TGI": "> 100 µM"}
{"Molecule": "COc1ccc(Cn2cnc3cc(C(=O)Nc4cccc5ccccc45)ccc32)c(OC)c1", "TGI": "> 100 µM"}
{"Molecule": "COc1cc(C(=O)/C=C/c2c(-c3ccc(F)cc3)nc3ncccn23)cc(OC)c1OC", "TGI": "11.2 µM"}

====

Recorded TGI values for a group of compounds are listed next.
Test system: A498 renal
Assay Comment: NCI tumour cell line growth inhibition, 48 h

{"Compound": "CCCC(=O)Nc1cc([N+](=O)[O-])c([N+](=O)[O-])cc1OC", "Display Unit": "µM", "TGI": 32.5}
{"Compound": "Oc1ccc2ccccc2c1C(c1ccc(Cl)cc1)c1c(O)ccc2ccccc12", "Display Unit": "µM", "TGI": 9.36}
{"Compound": "CC(C)/C(Cl)=N\\OC(=O)Nc1ccc(F)c([N+](=O)[O-])c1", "Display Unit": "µM", "TGI": 41.7}
{"Compound": "COc1cc(/C=C/C(=O)C(C(=O)/C=C/c2ccc(OC(=O)CCNc3nnc(C)s3)c(OC)c2)C(=O)CCNc2nnc(C)s2)ccc1OC(=O)CCNc1nnc(C)s1", "Display Unit": "µM", "TGI": 6.67}
{"Compound": "COCC(=O)OC1CCn2c1nc1c2C(=O)C(C)=C(NC(C)=O)C1=N (stereo not given)", "Display Unit": "µM", "TGI": 32.9}
